Target: uPAR-expressing HEC-265 human endometrial adenocarcinoma cells (Homo sapiens, UniProt Q03405)
Sequence (Q03405 23-335): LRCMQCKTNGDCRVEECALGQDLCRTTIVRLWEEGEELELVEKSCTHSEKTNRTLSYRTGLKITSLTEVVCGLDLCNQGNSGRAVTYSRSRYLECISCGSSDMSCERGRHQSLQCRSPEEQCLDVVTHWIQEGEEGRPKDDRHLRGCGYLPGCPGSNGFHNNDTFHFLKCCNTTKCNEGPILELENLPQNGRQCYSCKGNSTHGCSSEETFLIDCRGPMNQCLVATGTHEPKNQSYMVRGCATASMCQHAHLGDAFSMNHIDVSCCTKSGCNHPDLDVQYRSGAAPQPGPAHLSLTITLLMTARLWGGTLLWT
Where a SMILES comes first, the peptide text is derived from it. Bridges are numbered along the chain shown (N, C = ends). [ ]: non-standard residue; d: D form. The star is where a group is joined. DOTA = O=C(O)CN1CCN(CC(=O)O)CCN(CC(=O)*)CCN(CC(=O)O)CC1; Pro(cis-4-F) = O=C(O)[C@@H]1C[C@H](F)CN1; mTyr = N[C@@H](Cc1cccc(O)c1)C(=O)O; Hyp = O=C(O)[C@@H]1C[C@@H](O)CN1; Pentanoyl(4-Me) = CC(C)CCC(=O)*; Butoxycarbonyl = CCCCOC(=O)*; Nle = CCCC[C@H](N)C(=O)O; Orn = NCCC[C@H](N)C(=O)O; Nva = CCC[C@H](N)C(=O)O
The following compounds are listed with their measured IC50 values.

Assign IC50 to the following record: CC[C@H](C)[C@@H]1NC(=O)[C@@H](C)NC(=O)[C@@H]2CCCN2C(=O)[C@H](Cc2ccccc2)NC(=O)[C@H](Cc2ccc(O)cc2)NC(=O)[C@H](CCC(N)=O)NC(=O)[C@@H](C)NC(=O)[C@@H](NC(=O)CCC(C)C)CSSC[C@@H](C(N)=O)NC(=O)[C@H](CC(C)C)NC1=O [UPAR-231] ({Pentanoyl(4-Me)}-C[dA]QYFP[dA]ILC-NH2; disulfide 1-10)
0.0398 to 0.1 µM

Assign IC50 to the following record: CCCC[C@@H]1NC(=O)[C@H](CCCNC(=N)N)NC(=O)[C@@H](NC(=O)[C@H](CC(C)C)NC(=O)[C@H](CC(=O)O)NC(C)=O)CSSC[C@@H](C(N)=O)NC(=O)[C@@H](CC(C)C)NC(=O)[C@H]([C@@H](C)CC)NC(=O)[C@H](C)NC(=O)[C@@H]2CCCN2C(=O)[C@H](Cc2ccccc2)NC(=O)[C@H](Cc2ccc(O)cc2)NC1=O [UPAR-137] (Ac-DLCR[Nle]YFPAI[dL]C-NH2; disulfide 3-12)
0.0126 to 0.0316 µM

Assign IC50 to the following record: CCCCOC(=O)N[C@H]1CSSC[C@@H](C(N)=O)NC(=O)[C@H](CCC)NC(=O)[C@H]([C@@H](C)CC)NC(=O)[C@@H]2C[C@@H](O)CN2C(=O)[C@@H]2C[C@H](F)CN2C(=O)[C@H](Cc2ccccc2)NC(=O)[C@H](Cc2cccc(O)c2)NC(=O)[C@H](CCCNC(=O)CN2CCN(CC(=O)O)CCN(CC(=O)O)CCN(CC(=O)O)CC2)NC(=O)[C@H]([C@@H](C)O)NC1=O [UPAR-415] (Butoxycarbonyl-CT[Orn](DOTA)[mTyr]F[Pro(cis-4-F)][Hyp]I[Nva]C-NH2; disulfide 1-10)
≤ 0.01 µM

---

The following compounds are listed with their measured IC50 values.
Target: uPAR-expressing HEC-265 human endometrial adenocarcinoma cells (Homo sapiens)
Construct: Cell surface uPAR-expressing HEC-265 human endometrial adenocarcinoma cells; host or cells: HEC-265
Assay: Competitive FACS binding assay
Details: pIC50 category of FACS binding
Where a SMILES comes first, the peptide text is derived from it. Bridges are numbered along the chain shown (N, C = ends). [ ]: non-standard residue; d: D form. The star is where a group is joined. CH3O(CH2CH2O)11CH2CH2CO = COCCOCCOCCOCCOCCOCCOCCOCCOCCOCCOCCOCCC(=O)*; DOTA = O=C(O)CN1CCN(CC(=O)O)CCN(CC(=O)*)CCN(CC(=O)O)CC1; Hyp = O=C(O)[C@@H]1C[C@@H](O)CN1; Pentanoyl(4-Me) = CC(C)CCC(=O)*; Cit = NC(=O)NCCC[C@H](N)C(=O)O; Orn = NCCC[C@H](N)C(=O)O; Nva = CCC[C@H](N)C(=O)O; Pentanoyl = CCCCC(=O)*

INSERT INTO measurements (compound, reported_result) VALUES
  ('CCCCC(=O)N[C@H]1CSSC[C@@H](C(N)=O)NC(=O)[C@H](CCC)NC(=O)[C@H]([C@@H](C)CC)NC(=O)[C@@H]2C[C@@H](O)CN2C(=O)[C@@H]2CCCN2C(=O)[C@H](Cc2ccccc2)NC(=O)[C@H](Cc2ccc(O)cc2)NC(=O)[C@H](CCCCNC(=O)CN2CCN(CC(=O)O)CCN(CC(=O)O)CCN(CC(=O)O)CC2)NC(=O)[C@H](CCCNC(=O)CCOCCOCCOCCOCCOCCOCCOCCOCCOCCOCCOCCOC)NC1=O [UPAR-383] (Pentanoyl-C[Orn](CH3O(CH2CH2O)11CH2CH2CO)K(DOTA)YFP[Hyp]I[Nva]C-NH2; disulfide 1-10)', '≤ 10 nM');

Lab note: next compound to report on.
Assign IC50 to the following record: CC[C@H](C)[C@@H]1NC(=O)[C@@H](C)NC(=O)[C@@H]2CCCN2C(=O)[C@H](Cc2ccccc2)NC(=O)[C@H](Cc2ccc(O)cc2)NC(=O)[C@H](CCC(N)=O)NC(=O)[C@H](CCCNC(N)=O)NC(=O)[C@@H](NC(=O)CCC(C)C)CSSC[C@@H](C(N)=O)NC(=O)[C@H](C(C)C)NC1=O [UPAR-184] ({Pentanoyl(4-Me)}-C[Cit]QYFP[dA]IVC-NH2; disulfide 1-10)
≤ 10 nM
